Tested on: Plasmodium falciparum
Assay: Antimalarial activity against chloroquine-resistant asexual erythrocyte stage of Plasmodium falciparum K1 infected in human type O+ erythrocytes assessed as growth inhibition incubated for 48 hrs by NBT dye based LDH release assay
Assay type: functional, cell-based
Details: K1, 48 h
pIC50: −log10 of the molar value.

>  <smiles.record>
COc1ccc(-c2nc(-c3cc(OC)cc(OC)c3)[nH]c2-c2ccc(OC)cc2)cc1

>  <pIC50>
5.74

$$$$
>  <smiles.record>
COc1cc(OC)cc(-c2nc(-c3ccccc3)c(-c3ccc(Cl)cc3)[nH]2)c1

>  <pIC50>
5.57

$$$$
>  <smiles.record>
COc1cc(-c2nc(-c3ccccc3)c(-c3ccccc3)[nH]2)cc(OC)c1O

>  <pIC50>
5.72

$$$$

====

Assay: Selectivity index, ratio of cytotoxic activity against CHO cells to IC50 for Plasmodium falciparum infected in human type O+ erythrocytes
Format: toxicity, cell-based
Settings: hamster, read-out: Selectivity Index

>  <smiles.record>
COc1cc(OC)cc(-c2nc(-c3ccccc3)c(-c3ccccc3)[nH]2)c1

>  <inequality.symbol>
>

>  <selectivity ratio>
206

$$$$
>  <smiles.record>
O=[N+]([O-])c1ccc(-c2nc(-c3ccccc3)c(-c3ccccc3)[nH]2)cc1

>  <inequality.symbol>
=

>  <selectivity ratio>
7.8

$$$$
>  <smiles.record>
FC(F)(F)Oc1ccc(-c2nc(-c3ccccc3)c(-c3ccccc3)[nH]2)cc1

>  <inequality.symbol>
=

>  <selectivity ratio>
6.9

$$$$
>  <smiles.record>
COc1ccc(-c2nc(-c3cc(OC)cc(OC)c3)[nH]c2-c2ccc(OC)cc2)cc1

>  <inequality.symbol>
>

>  <selectivity ratio>
141

$$$$

====

System: Plasmodium falciparum
Test: Antimalarial activity against chloroquine-resistant asexual erythrocyte stage of Plasmodium falciparum K1 infected in human type O+ erythrocytes assessed as growth inhibition incubated for 72 hrs by NBT dye based LDH release assay
Assay type: functional, cell-based
Conditions: K1, 72 h

>  <smiles.record>
COc1cc(OC)cc(-c2nc(-c3ccccc3)c(-c3ccccc3)[nH]2)c1

>  <unit.abbreviation>
µM

>  <IC50>
4.7

$$$$

====

Assay: Cytotoxicity against CHO cells assessed as decrease in cell viability by MTT assay
Assay type: toxicity, cell-based, Cricetulus griseus
Conditions: chinese hamster
Readings of Activity for the listed molecules
assay.readout: Activity

>  <smiles.record>
O=[N+]([O-])c1ccc(-c2nc(-c3ccccc3)c(-c3ccccc3)[nH]2)cc1

>  <val>
149 µM

$$$$
>  <smiles.record>
COc1ccc(-c2nc(-c3cc(OC)cc(OC)c3)[nH]c2-c2ccc(OC)cc2)cc1

>  <val>
> 240 µM

$$$$
>  <smiles.record>
COc1cc(OC)cc(-c2nc(-c3ccccc3)c(-c3ccccc3)[nH]2)c1

>  <val>
> 269 µM

$$$$
>  <smiles.record>
FC(F)(F)Oc1ccc(-c2nc(-c3ccccc3)c(-c3ccccc3)[nH]2)cc1

>  <val>
29 µM

$$$$
